Provenance of the data: patent US20240343799A1

- assayed-system: T1, CD79b on the surface of B-cell non-Hodgkin's lymphoma cells (human, UniProt P40259 29-229)
- T1 construct: whole, on cells; Endogenous CD79b of the cell lines; on cells it stands in the B cell receptor complex with CD79a; also called CD79b on Ramos cells; CD79b on BJAB cells
- T1 sequence (looked up): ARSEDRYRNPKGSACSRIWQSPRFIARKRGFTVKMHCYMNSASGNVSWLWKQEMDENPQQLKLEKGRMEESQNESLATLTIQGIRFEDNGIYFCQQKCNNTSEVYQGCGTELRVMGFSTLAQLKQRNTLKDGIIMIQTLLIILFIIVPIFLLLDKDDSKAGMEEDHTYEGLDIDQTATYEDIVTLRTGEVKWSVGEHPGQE
- measurement-description: flow cytometry on Ramos cells, goat anti-human IgG PE
reported-property: EC50 (read off the curve)

Entry hz11G10.9.p1 (antibody, V domains shown, Humanized monospecific anti-CD79b antibody; also called 11G10.9.01) VH: QVQLVQSGAEVKKPGASVKVSCKASGYTFTDYWVNWVRQAPGQGLEWMGMIDPSDSETHYNQMFNDRVTMTVDTSTSTVYMELSSLRSEDTAVYYCTRSNYYWGQGTLVTVSS VL: DIVMTQTPLSLSVTPGQPASISCKSSQSLLDSEGKTYLNWLLQKPGQSPQSLIYLVSKLDSGVPDRFSGSGSGTDFTLKISRVEAEDVGVYYCWQGTHFPLTFGGGTKVEIK has what EC50 (read off the curve)?
~5 nM
